Attribution: ChEMBL document CHEMBL2218924

tested.system: cGMP-dependent protein kinase 1 (Homo sapiens) (UniProt Q13976)
Sequence (Q13976 whole entry): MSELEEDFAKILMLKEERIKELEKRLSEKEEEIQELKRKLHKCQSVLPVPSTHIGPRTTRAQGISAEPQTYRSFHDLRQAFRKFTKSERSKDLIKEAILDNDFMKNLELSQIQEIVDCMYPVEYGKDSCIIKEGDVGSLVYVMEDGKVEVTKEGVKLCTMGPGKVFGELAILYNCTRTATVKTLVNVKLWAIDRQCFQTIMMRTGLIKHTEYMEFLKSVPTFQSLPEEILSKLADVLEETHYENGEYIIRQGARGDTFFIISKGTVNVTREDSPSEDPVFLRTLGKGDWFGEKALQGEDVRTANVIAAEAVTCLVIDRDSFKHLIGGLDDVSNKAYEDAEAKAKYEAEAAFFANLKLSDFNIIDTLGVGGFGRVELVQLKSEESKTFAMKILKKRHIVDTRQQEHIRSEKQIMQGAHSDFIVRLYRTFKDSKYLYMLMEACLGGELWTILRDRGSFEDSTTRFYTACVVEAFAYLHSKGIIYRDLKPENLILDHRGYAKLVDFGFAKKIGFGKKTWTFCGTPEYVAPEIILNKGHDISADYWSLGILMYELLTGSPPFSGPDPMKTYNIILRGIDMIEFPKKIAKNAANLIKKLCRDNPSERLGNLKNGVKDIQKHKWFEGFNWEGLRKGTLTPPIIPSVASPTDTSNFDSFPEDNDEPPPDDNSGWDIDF
condition.label: at 1 µM
Form field: residual activity (one value per entry).
Number only, in %; omit the unit.

Look over these answered cases.
query: Write down residual activity measured for item "COc1ccc(-c2cnc3c(-c4ccsc4)cnn3c2)cc1"
result: 88

query: Write down residual activity measured for item "O=C(O)/C=C/c1cc(Br)c(Br)c(Br)c1Br"
result: 94

---
query: Write down residual activity measured for item O=C(NC(NC(=S)Nc1ccc(F)c([N+](=O)[O-])c1)C(Cl)(Cl)Cl)C(c1ccccc1)c1ccccc1 (stereo unspecified)
result: 96

query: Write down residual activity measured for item "c1ccc(-c2cnc(Nc3ccc(OCCN4CCCC4)cc3)s2)cc1"
result: 122

query: Write down residual activity measured for item "Nc1ncnc2c1c(-c1ccc(Oc3ccccc3)cc1)cn2C1CCCC1"
result: 102

query: Write down residual activity measured for item "O=S(=O)(c1cccc2cnccc12)N1CCCNCC1"
result: 57
